- targetSystem: Carbonic anhydrase 4 (Bos taurus)
- Sequence (Q95323 whole entry): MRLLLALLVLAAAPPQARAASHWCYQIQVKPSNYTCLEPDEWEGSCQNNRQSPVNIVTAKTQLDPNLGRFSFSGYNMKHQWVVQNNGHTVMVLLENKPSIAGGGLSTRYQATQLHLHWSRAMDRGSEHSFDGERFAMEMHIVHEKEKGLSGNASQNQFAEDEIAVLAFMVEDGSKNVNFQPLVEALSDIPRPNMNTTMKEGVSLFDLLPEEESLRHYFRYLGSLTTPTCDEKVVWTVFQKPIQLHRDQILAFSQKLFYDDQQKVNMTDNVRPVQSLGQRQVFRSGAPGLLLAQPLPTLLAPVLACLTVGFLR
pKi: −log10 of the molar value.
Use 7 as the dividing line for pKi, with the line itself on the 1.0 side and lower values as 0.0.

# bool: pKi of CNCC(=O)NS(=O)(=O)c1nc2ccc(O)cc2s1 >= 7
1.0

# bool: pKi of NCC(=O)NCC(=O)NCCC(=O)Nc1nnc(S(N)(=O)=O)s1 >= 7
1.0

# bool: pKi of NCC(=O)NS(=O)(=O)c1ccc(CO)cc1 >= 7
0.0

# bool: pKi of NCC(=O)NCC(=O)Nc1cccc(S(N)(=O)=O)c1 >= 7
0.0

# bool: pKi of CN(CC(=O)NCCC(=O)Nc1nnc(S(N)(=O)=O)s1)C(=N)N >= 7
1.0

# bool: pKi of NCC(=O)NCC(=O)NS(=O)(=O)c1nc2ccc(OCCO)cc2s1 >= 7
1.0

# bool: pKi of CN(CC(=O)Nc1ccccc1S(N)(=O)=O)C(=N)N >= 7
0.0

# bool: pKi of CNCC(=O)Nc1ccc2nc(S(N)(=O)=O)sc2c1 >= 7
1.0

---

- targetSystem: Carbonic anhydrase 4 (Bos taurus)
Lab note: compare Ki with 70 nM, writing 1 if less and 0 if equal or more.

Answer whether the compound CN(CC(=O)NS(=O)(=O)c1nc2ccc(O)cc2s1)C(=N)N has Ki strictly less than 70 nM
1

Answer whether the compound NCC(=O)NCCc1ccc(S(N)(=O)=O)cc1 has Ki strictly less than 70 nM
0

Answer whether the compound CNCC(=O)Nc1ccc(S(N)(=O)=O)cc1F has Ki strictly less than 70 nM
1

Answer whether the compound NCC(=O)NCC(=O)Nc1ccc2nc(S(N)(=O)=O)sc2c1 has Ki strictly less than 70 nM
1

Answer whether the compound CCN(C(=O)CNC(=O)CN)C1CC(C)S(=O)(=O)c2sc(S(N)(=O)=O)cc21 (configuration not stated) has Ki strictly less than 70 nM
1

Answer whether the compound NCC(=O)NCC(=O)NCc1ccc(S(N)(=O)=O)cc1 has Ki strictly less than 70 nM
0

Answer whether the compound CN(CC(=O)Nc1ccc(S(N)(=O)=O)cc1F)C(=N)N has Ki strictly less than 70 nM
1

Answer whether the compound CNCC(=O)Nc1ccccc1S(N)(=O)=O has Ki strictly less than 70 nM
0

Answer whether the compound CNCC(=O)Nc1c(S(N)(=O)=O)cc(S(N)(=O)=O)c(Cl)c1Cl has Ki strictly less than 70 nM
1

Answer whether the compound NCC(=O)Nc1ccc(S(N)(=O)=O)cc1Cl has Ki strictly less than 70 nM
0

---

Assign kin to each entry below.
Express it in h⁻¹; write the number only.

Tell me kin reported for NCC(=O)Nc1ccc(S(=O)(=O)Nc2nnc(S(N)(=O)=O)s2)cc1
5.4

Tell me kin reported for CC(=O)/N=c1/sc(S(N)(=O)=O)nn1C [METHAZOLAMIDE]
13

Tell me kin reported for NCC(=O)NCC(=O)NS(=O)(=O)c1nc2ccc(OCCO)cc2s1
6.4

---

Assign kin to each entry below.
Express it in h⁻¹; write the number only.

Tell me kin reported for NCC(=O)NCC(=O)Nc1c(S(N)(=O)=O)cc(S(N)(=O)=O)c(Cl)c1Cl
11.5

Tell me kin reported for NCC(=O)NCC(=O)Nc1ccc(S(=O)(=O)Nc2nnc(S(N)(=O)=O)s2)cc1
5

Tell me kin reported for CNCC(=O)Nc1cc(Cl)c(S(N)(=O)=O)cc1S(N)(=O)=O
7.9

Tell me kin reported for CCNC1CC(C)S(=O)(=O)c2sc(S(=O)(=O)NC(=O)CNC)cc21 (stereo not given)
7.8

Tell me kin reported for CN(CC(=O)NCCC(=O)Nc1nnc(S(N)(=O)=O)s1)C(=N)N
8.5

Each recorded value in this set is attributed to ChEMBL document CHEMBL1132382.
